Biological target: GABA transporter 3 (Mus musculus, UniProt P31649)
Sequence (P31649 whole entry): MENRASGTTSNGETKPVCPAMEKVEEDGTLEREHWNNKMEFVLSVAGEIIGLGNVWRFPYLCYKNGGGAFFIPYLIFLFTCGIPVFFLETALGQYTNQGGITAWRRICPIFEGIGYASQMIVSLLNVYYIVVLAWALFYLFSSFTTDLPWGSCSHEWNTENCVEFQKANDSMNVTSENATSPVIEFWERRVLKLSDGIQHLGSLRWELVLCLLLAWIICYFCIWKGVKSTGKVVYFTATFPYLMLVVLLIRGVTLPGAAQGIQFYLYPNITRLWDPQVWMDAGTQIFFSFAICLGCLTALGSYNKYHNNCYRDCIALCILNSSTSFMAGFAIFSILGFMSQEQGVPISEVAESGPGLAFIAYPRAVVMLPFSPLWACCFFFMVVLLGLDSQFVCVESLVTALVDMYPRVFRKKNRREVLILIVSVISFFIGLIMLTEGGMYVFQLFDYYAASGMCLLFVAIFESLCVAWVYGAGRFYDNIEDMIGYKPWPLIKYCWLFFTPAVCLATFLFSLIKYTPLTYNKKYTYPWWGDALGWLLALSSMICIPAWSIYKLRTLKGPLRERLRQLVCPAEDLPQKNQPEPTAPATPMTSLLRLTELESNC
Experiment: Inhibition of mouse GAT2 mediated [3]GABA uptake expressed in HEK293 cells after 3 mins by scintillation counting
pIC50: −log10 of the molar value.
pIC50 values for the compounds below.

Study these solved cases before continuing.
CCN(CC)CCC(=O)N1C(=O)CCC12CCCCC2 :: < 3.00
O=C(O)C1=CCCN(CCON=C(c2ccccc2)c2ccccc2)C1 :: < 3.00
O=C(CCN1CCCCC1)N1C(=O)CCC12CCCCC2 :: < 3.00
O=C1CCC2(CCCCC2=O)N1 (stereo not drawn) :: < 3.00
O=C(CI)N1C(=O)CCC12CCCCC2 :: < 3.00

In: GET /values?readout=pIC50&item= O=C(O)C1=CCCNC1
Out: 4.14

In: For the compound C=CC(=O)N1C(=O)CCC12CCCCC2=O (stereo not drawn) , what pIC50 is on record?
Out: < 3.00

In: State the recorded pIC50 for this entry: O=C1C=CC2(CCCC23OCCO3)N1C(=O)CCN1CCNCC1 (stereo not drawn)
Out: < 3.00

In: Reported pIC50 for COC(=O)C1=CCCN(CCC(=O)N2CCCC23CCCCC3)C1 : what is it?
Out: 2.49

In: // pIC50 lookup, key: O=C(CCN1CCOCC1)N1CCCC12CCCCC2
Out: < 2.30

In: Recorded pIC50 for CCOC(=O)C1CCCN(CCC(=O)N2C(=O)C=CC23CCCC32OCCO2)C1 (stereo not drawn) , please?
Out: < 3.00

In: Fill blank: measured pIC50 of the compound O=C(CCN1CCNCC1)N1C(=O)CCC12CCCCC2 is ____.
Out: < 3.00

In: For the compound O=C(CCN1CCCCC1)N1CCCC12CCCCC2 , what pIC50 is on record?
Out: < 2.30

In: Need pIC50 of [N-]=[N+]=NCC(=O)N1C(=O)CCC12CCCCC2 , thanks.
Out: < 3.00

In: Suppose we examine the compound O=C1CCC2(CCCC23OCCO3)N1 (stereo not drawn) ; what pIC50 value has been reported?
Out: < 3.00

In: Requested read-out: pIC50. Entry: O=C(CCN1CCNCC1)N1CCCC12CCCCC2
Out: < 3.00

In: Fill blank: measured pIC50 of the compound O=C(CBr)N1C(=O)CCC12CCCCC2 is ____.
Out: < 3.00

In: What value of pIC50 has been reported for the following compound? O=C1C=CC2(CCCC23OCCO3)N1C(=O)CCN1CCOCC1 (stereo not drawn)
Out: < 3.00

In: Entry under review: CCOC(=O)C1CCCN(CCC(=O)N2CCCC23CCCCC3)C1 (stereo not drawn) . Reported pIC50?
Out: 2.63

In: Bench note: what pIC50 did O=C1CCC2(CCCCC2)N1 show?
Out: < 2.30

In: // returns reported pIC50 for input CCOC(=O)C1CCCN(CCC(=O)N2C(=O)CCC23CCCCC3)C1 (stereo not drawn)
Out: < 3.00
